target: M4 muscarinic receptor (Homo sapiens); construct: expressed in transfected cells; host or cells: CHO (M4-CHO); assay: Functional mobilization of intracellular calcium (FLIPR) in M4-CHO cells; format: cell-based; details: M4 receptor, calcium mobilization; read-out: M4 Efficacy
Readout type: Emax

[[record]]
compound = "O=C(O[C@H]1CCOC1)N1C2CCC1CC(N1CCC3(CCc4ccccc43)CC1)C2 (stereo partly shown) [compound 355]"
test_result = "65 to 85%"

[[record]]
compound = "CCOC(=O)N1CCC(N2CCC3(CC2)CN(C(C)=O)c2ccc(-c4ccc(C(F)(F)F)cc4)cc23)CC1 [compound 295]"
test_result = "65 to 85%"

[[record]]
compound = "Fc1ccc2c(c1)C1(CCN([C@@H]3C[C@@H]4CC[C@H]3C4)CC1)CO2 [compound 175]"
test_result = "65 to 85%"

[[record]]
compound = "CCOC(=O)N1C2CCC1CC(N1CCC3(CC1)C[C@H](NC(C)=O)c1ccccc13)C2 (stereo partly shown) [compound 359]"
test_result = "< 65%"

[[record]]
compound = "CCOC(=O)N1CCC(N2CCC3(CC2)CN(C(C)=O)c2ccc(-c4ccc(NC(C)=O)cc4)cc23)CC1 [compound 10]"
test_result = "65 to 85%"

[[record]]
compound = "CCOC(=O)N1C2CCC1CC(N1CCC3(CC1)CN(C(=O)N(C)C)c1ccc(F)cc13)C2 (stereo not shown) [compound 362]"
test_result = "< 65%"

[[record]]
compound = "CC(C)C(=O)N(C)[C@H]1CC2(CCN(C[C@H]3C[C@H]4CC[C@H]3C4)CC2)c2ccccc21 [compound 246]"
test_result = "> 85%"

[[record]]
compound = "CCCC1CCC(N2CCC3(CC2)CNc2ccc(Cl)cc23)CC1 (stereo not shown) [compound 341]"
test_result = "< 65%"

[[record]]
compound = "CCCOC(=O)N1CCC(CN2CCC3(CC2)CN(C(C)=O)c2ccc(F)cc23)CC1 [compound 98]"
test_result = "< 65%"

[[record]]
compound = "CC(=O)N1CC2(CCN(C3CC[C@@H]4CC[C@@H]3C4)CC2)c2cc(F)ccc21 (stereo partly shown) [compound 251]"
test_result = "65 to 85%"

[[record]]
compound = "CCOC(=O)N1CCC(N2CCC3(CC2)CN(C(C)=O)c2ccc(-c4ccc(OC)cc4)cc23)CC1 [compound 193]"
test_result = "< 65%"

[[record]]
compound = "CCC(=O)CCN1CC2(CCN(C[C@@H]3C[C@H]4C=C[C@H]3C4)CC2)c2cc(F)ccc21 [compound 12]"
test_result = "< 65%"

[[record]]
compound = "CC1(C)C(=O)c2ccccc2C12CCN(C[C@H]1C[C@@H]3C=C[C@@H]1C3)CC2 [compound 20]"
test_result = "< 65%"

[[record]]
compound = "CC(=O)NC1CC2(CCN(C3CC4CCC(C4)C3)CC2)c2ccccc21 (stereo not shown) [compound 8]"
test_result = "65 to 85%"

[[record]]
compound = "CCOC(=O)N1CCC(N2CCC3(CC2)CN(C(=O)OC(C)C)c2ccc(F)cc23)CC1 [compound 145]"
test_result = "> 85%"

[[record]]
compound = "CC(=O)N[C@H]1CC2(CCN(C3CCCCC3)CC2)c2ccccc21 [compound 196]"
test_result = "< 65%"


###

Measured Emax accompanies every entry in the list below.
Biological target: M4 muscarinic receptor (Homo sapiens, UniProt P08173)
Construct: expressed in transfected cells; host or cells: CHO (M4-CHO)
Experiment: Functional mobilization of intracellular calcium (FLIPR) in M4-CHO cells
Assay type: cell-based
Conditions: M4 receptor, calcium mobilization; read-out: M4 Efficacy
Protocol: Functional Mobilization of Intracellular Calcium to Determine Muscarinic Receptor Activity: […] Compounds are prepared at a 2× fold concentration in a 96-well plate (round bottom, Costar Corning cat# 3656), by reconstituting the pre-spotted compounds in bath 1 containing 1 mM probenecid. […] In both assay modes, the fluorescence is recorded for 60 sec (excitation wavelength is […] and emission wavelength 540 nm) using the FLIPR 3 instrument. […]
Readout type: Emax

[[record]]
compound = "CCOC(=O)N1CCC(N2CCC3(CC2)CN(C(C)=O)c2ccc(-c4ccc(C#N)cc4)cc23)CC1"
test_result = "65 to 85%"

[[record]]
compound = "CC(=O)N1CC2(CCN(C3CC4CCC(C3)N4C(=O)OC(C)C)CC2)c2cc(F)ccc21 (stereo not shown)"
test_result = "< 65%"

[[record]]
compound = "c1ccc2c(c1)NCC21CCN(CC2CCCCC2)CC1"
test_result = "65 to 85%"

[[record]]
compound = "O=C(C1CC1)N1CC2(CCN(C3CC4CCC(C3)N4C(=O)O[C@H]3CCOC3)CC2)c2cc(F)ccc21 (stereo partly shown)"
test_result = "65 to 85%"

[[record]]
compound = "CC(=O)NC1CC2(CCN(C3CC4CCC3C4)CC2)c2ccccc21 (stereo not shown)"
test_result = "65 to 85%"

[[record]]
compound = "O=C(O[C@@H]1CCOC1)N1C2CCC1CC(N1CCC3(CC1)COc1ccc(F)cc13)C2 (stereo partly shown)"
test_result = "< 65%"

[[record]]
compound = "O=C(OCC(F)F)N1C2CCC1CC(N1CCC3(CC1)COc1ccc(F)cc13)C2 (stereo not shown)"
test_result = "65 to 85%"

[[record]]
compound = "CCOC(=O)N1CCC(N2CCC3(CC2)CN(C(=O)c2ccc(C)cc2)c2ccc(F)cc23)CC1"
test_result = "< 65%"

[[record]]
compound = "CCOC(=O)N1CCC(N2CCC3(CC2)CN(C(=O)CC(C)(C)C)c2ccc(F)cc23)CC1"
test_result = "65 to 85%"

[[record]]
compound = "CCOC(=O)N1CCC(N2CCC3(CC2)CN(C(C)=O)c2ccc(-c4ccoc4)cc23)CC1"
test_result = "< 65%"

[[record]]
compound = "c1ccc2c(c1)NCC21CCN(C2CC3CCC2C3)CC1 (stereo not shown)"
test_result = "> 85%"

[[record]]
compound = "CCOC(=O)N1C2CCC1CC(N1CCC3(CC1)CN(C(=O)OC)c1ccc(F)cc13)C2 (stereo not shown)"
test_result = "> 85%"

[[record]]
compound = "COC(=O)N1CCC(N2CCC3(CC2)CN(C(=O)N(C)C)c2ccc(F)cc23)CC1"
test_result = "> 85%"

[[record]]
compound = "CC(C)OC(=O)N1C2CCC1CC(N1CCC3(CC1)CN(S(C)(=O)=O)c1ccc(F)cc13)C2 (stereo not shown)"
test_result = "> 85%"

[[record]]
compound = "CN(C)C(=O)N1CC2(CCN(C3CCN(C(=O)O[C@H]4CCOC4)CC3)CC2)c2cc(F)ccc21"
test_result = "< 65%"

[[record]]
compound = "CN(C)C(=O)N1CC2(CCN(C3CC4CCC(C3)N4C(=O)OCCF)CC2)c2cc(F)ccc21 (stereo not shown)"
test_result = "65 to 85%"


###

Molecular target: M4 muscarinic receptor (Homo sapiens)
Construct: expressed in transfected cells; host or cells: CHO (M4-CHO)
Sequence (P08173 1-479): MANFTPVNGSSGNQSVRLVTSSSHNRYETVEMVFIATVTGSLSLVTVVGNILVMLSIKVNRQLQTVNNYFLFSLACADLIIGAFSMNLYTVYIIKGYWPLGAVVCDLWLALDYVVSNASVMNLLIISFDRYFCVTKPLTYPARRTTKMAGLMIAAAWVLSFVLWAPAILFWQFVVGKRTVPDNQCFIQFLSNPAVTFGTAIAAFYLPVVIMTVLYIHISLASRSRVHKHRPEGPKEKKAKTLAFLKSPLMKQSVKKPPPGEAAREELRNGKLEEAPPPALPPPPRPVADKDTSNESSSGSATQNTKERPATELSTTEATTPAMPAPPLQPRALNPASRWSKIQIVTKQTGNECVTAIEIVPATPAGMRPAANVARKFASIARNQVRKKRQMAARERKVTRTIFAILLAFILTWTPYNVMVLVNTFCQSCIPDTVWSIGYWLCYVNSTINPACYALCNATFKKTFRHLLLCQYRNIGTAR
Assay: Functional mobilization of intracellular calcium (FLIPR) in M4-CHO cells
Assay type: cell-based
Settings: M4-CHO cells, calcium mobilization (FLIPR); read-out: M4 Efficacy
Readout type: Emax

[[record]]
compound = "COCCOC(=O)N1CC2(CCN(C3CC4CCC(C3)N4C(=O)OC(C)C)CC2)c2cc(F)ccc21 (centres unmarked)"
readout_type = "Emax"
test_result = "< 65%"

[[record]]
compound = "CC(=O)CN1CC2(CCN(C[C@@H]3C[C@H]4C=C[C@H]3C4)CC2)c2cc(F)ccc21"
readout_type = "Emax"
test_result = "< 65%"

[[record]]
compound = "Fc1ccc2c(c1)C1(CCN(C3CC4CCC(C4)C3)CC1)CN2 (centres unmarked)"
readout_type = "Emax"
test_result = "65 to 85%"

[[record]]
compound = "CC(=O)N1CC2(CCN(C3CCN(C(=O)O[C@H]4CCOC4)CC3)CC2)c2cc(C)ccc21"
readout_type = "Emax"
test_result = "< 65%"

[[record]]
compound = "CS(=O)(=O)N1CC2(CCN(C3CC4CCC(C3)N4C(=O)O[C@H]3CCOC3)CC2)c2cc(F)ccc21 (some centres unmarked)"
readout_type = "Emax"
test_result = "< 65%"

[[record]]
compound = "CC(=O)N1CC2(CCN(C3CCCCC3)CC2)c2cc(F)ccc21"
readout_type = "Emax"
test_result = "< 65%"

[[record]]
compound = "CCOC(=O)N1CCC(N2CCC3(CC2)CN(C(=O)c2ccc4c(c2)OCO4)c2ccc(F)cc23)CC1"
readout_type = "Emax"
test_result = "< 65%"

[[record]]
compound = "CCOC(=O)N1CCC(N2CCC3(CC2)C[C@@H](NC(C)=O)c2ccccc23)CC1"
readout_type = "Emax"
test_result = "< 65%"

